Below, each entry is listed with its recorded growth inhibition by drug plus 177Lu-lilotomab satetraxetan.
- System: U-2932
- test_details: growth inhibition by drug plus 177Lu-lilotomab satetraxetan (1 - RLU/untreated control) (fraction); higher = stronger inhibition
- measurement_conditions: 10 nM; time (day): 6; 177Lu-lilotomab satetraxetan 1 ug/ml
Structures can show the parent of a compound that is named as a salt.
Kindly provide the number alone.

Worked cases, growth inhibition by drug plus 177Lu-lilotomab satetraxetan given:
# molecule, target_under_test, assay_value
rows = [
    ("O=C(O)c1ccc2cc(-c3ccc(O)c(C45CC6CC(CC(C6)C4)C5)c3)ccc2c1", "U-2932", 0.221),
    ("CCC1=C[C@@H]2CN(C1)Cc1c([nH]c3ccccc13)[C@@](C(=O)OC)(c1cc3c(cc1OC)N(C)[C@H]1[C@@](O)(C(=O)OC)[C@H](OC(C)=O)[C@]4(CC)C=CCN5CC[C@]31[C@@H]54)C2", "U-2932", 0.621),
]

Would you mind telling me what growth inhibition by drug plus 177Lu-lilotomab satetraxetan value was observed for CC[C@@H]1/C=C(\C)C[C@H](C)C[C@H](OC)[C@H]2O[C@@](O)(C(=O)C(=O)N3CCCC[C@H]3C(=O)O[C@H](/C(C)=C/[C@@H]3CC[C@H](Cl)[C@H](OC)C3)[C@H](C)[C@@H](O)CC1=O)[C@H](C)C[C@@H]2OC ?
0.352

Cool, now CCc1cc(-c2n[nH]c(C)c2-c2ccc3c(c2)OCCO3)c(O)cc1O
0.0788

Cool, now Cc1ccc(NC(=O)c2ccc(CN3CC[C@H](N(C)C)C3)c(C(F)(F)F)c2)cc1Nc1nccc(-c2cncnc2)n1
0.239

Cool, now CCN[C@H]1C[C@H](C)S(=O)(=O)c2sc(S(N)(=O)=O)cc21 [Dorzolamide HCL]
0.152

Cool, now CCOc1cc(C(=O)Nc2ccc(Cl)c(-c3nc4ccccc4[nH]3)c2)cc(OCC)c1OCC
0.147

====

Below, each entry is listed with its recorded growth inhibition by drug alone.
- Test system: RIVA
- test_details: growth inhibition by drug alone (1 - RLU/untreated control) (fraction); higher = stronger inhibition
- measurement_conditions: 100 nM; time (day): 6; 177Lu-lilotomab satetraxetan 0 ug/ml
Kindly provide the number alone.

# structure_smiles, assay_value
measured = [
    ("CO[C@H]1C[C@@H]2CC[C@@H](C)[C@@](O)(O2)C(=O)C(=O)N2CCCC[C@H]2C(=O)O[C@H]([C@H](C)C[C@@H]2CC[C@@H](OC(=O)C(C)(CO)CO)[C@H](OC)C2)CC(=O)[C@H](C)/C=C(\\C)[C@@H](O)[C@@H](OC)C(=O)[C@H](C)C[C@H](C)/C=C/C=C/C=C/1C", 0.812),
    ("CN(c1ncccc1CNc1nc(Nc2ccc3c(c2)CC(=O)N3)ncc1C(F)(F)F)S(C)(=O)=O", -0.0367),
]

Could you now look at the following compound, please?
Would you mind telling me what growth inhibition by drug alone value was observed for CC(C)C[C@H](NC(=O)[C@@H](O)[C@H](N)Cc1ccccc1)C(=O)O ?
-0.114

====

- Test system: RIVA
- test_details: growth inhibition by drug plus 177Lu-lilotomab satetraxetan (1 - RLU/untreated control) (fraction); higher = stronger inhibition
- measurement_conditions: 100 nM; time (day): 4; 177Lu-lilotomab satetraxetan 0.5 ug/ml
measure_name: growth inhibition by drug plus 177Lu-lilotomab satetraxetan
Kindly provide the number alone.

Worked cases, growth inhibition by drug plus 177Lu-lilotomab satetraxetan given:
# compound, assay_value
measured = [
    ("NC(=O)c1ccc(-c2nc(-c3ccccn3)c(-c3ccc4c(c3)OCO4)[nH]2)cc1", 0.521),
    ("Nc1ccccc1NC(=O)c1ccc(CNC(=O)OCc2cccnc2)cc1", 0.62),
    ("Cn1cc(C2=C(c3ccc(Cl)cc3Cl)C(=O)NC2=O)c2ccccc21", 0.512),
    ("O=C(NCCS(=O)(=O)c1ccc(C(F)(F)F)cn1)c1ccc(Cl)cc1", 0.503),
    ("C[C@@H]1CN(CC(=O)Nc2ccc3c(c2)Cc2cccc(-c4cc(=O)cc(N5CCOCC5)o4)c2S3)C[C@H](C)O1", 0.357),
    ("CN(c1ncccc1CNc1nc(Nc2ccc3c(c2)CC(=O)N3)ncc1C(F)(F)F)S(C)(=O)=O", 0.565),
]

Would you mind telling me what growth inhibition by drug plus 177Lu-lilotomab satetraxetan value was observed for O=C1CN2Cc3c(ccc(Cl)c3Cl)N=C2N1 [Anagrelide] ?
0.612

Cool, now CCOc1cc2ncc(C#N)c(Nc3ccc(F)c(Cl)c3)c2cc1NC(=O)/C=C/CN(C)C [Pelitinib (EKB-569)]
0.368

====

- Tested on: RIVA
- test_details: growth inhibition by drug plus 177Lu-lilotomab satetraxetan (1 - RLU/untreated control) (fraction); higher = stronger inhibition
- measurement_conditions: 10 nM; time (day): 6; 177Lu-lilotomab satetraxetan 0.5 ug/ml
Where a name gives a salt, the structure may show the parent alone.
measure_name: growth inhibition by drug plus 177Lu-lilotomab satetraxetan
Kindly provide the number alone.

# compound, target_under_test, assay_value
measured = [
    ("COc1ccc(-c2ccc3c(N4CCOC[C@@H]4C)nc(N4CCOC[C@@H]4C)nc3n2)cc1CO", "RIVA", 0.545),
    ("C[C@]12CCC(=O)C=C1CC[C@@H]1[C@@H]2[C@@H](O)C[C@@]2(C)[C@H]1CC[C@]2(O)C(=O)CO [Hydrocortisone (Cortisol)]", "RIVA", 0.608),
    ("NC(=O)c1ccc(-c2nc(-c3ccccn3)c(-c3ccc4c(c3)OCO4)[nH]2)cc1", "RIVA", 0.63),
    ("COc1cc(Nc2ncc3c(n2)-c2ccc(Cl)cc2C(c2c(F)cccc2OC)=NC3)ccc1C(=O)O", "RIVA", 0.572),
]

Would you mind telling me what growth inhibition by drug plus 177Lu-lilotomab satetraxetan value was observed for CC(C)C(=O)Nc1ccc([N+](=O)[O-])c(C(F)(F)F)c1 [Flutamide (Eulexin)] ?
0.663

Cool, now COc1cccc2c1C(=O)c1c(O)c3c(c(O)c1C2=O)C[C@@](O)(C(C)=O)C[C@@H]3O[C@H]1C[C@H](N)[C@H](O)[C@H](C)O1 [Daunorubicin HCl (Daunomycin HCl)]
0.902

Cool, now O=C(O[C@@H]1Cc2c(O)cc(O)cc2O[C@@H]1c1cc(O)c(O)c(O)c1)c1cc(O)c(O)c(O)c1 [(-)-Epigallocatechin gallate]
0.559

====

Below, each entry is listed with its recorded growth inhibition by drug alone.
- System: U-2932
- test_details: growth inhibition by drug alone (1 - RLU/untreated control) (fraction); higher = stronger inhibition
- measurement_conditions: 10 nM; time (day): 4; 177Lu-lilotomab satetraxetan 0 ug/ml

Worked cases, growth inhibition by drug alone given:
# compound, growth inhibition by drug alone
rows = [
    ("CC(C=CC(=O)NO)=CC(C)C(=O)c1ccc(N(C)C)cc1 (stereo not drawn)", 0.0558),
    ("c1ccc(-c2nn3c(c2-c2ccnc4cc(OCCN5CCOCC5)ccc24)CCC3)nc1", 0.0254),
    ("Cc1ccc(S(=O)(=O)C=CC#N)cc1", 0.0923),
    ("Nc1ncn([C@H]2C[C@H](O)[C@@H](CO)O2)c(=O)n1", 0.0737),
    ("C=CC[C@@H]1/C=C(\\C)C[C@H](C)C[C@H](OC)[C@H]2O[C@@](O)(C(=O)C(=O)N3CCCC[C@H]3C(=O)O[C@H](/C(C)=C/[C@@H]3CC[C@@H](O)[C@H](OC)C3)[C@H](C)[C@@H](O)CC1=O)[C@H](C)C[C@@H]2OC", 0.364),
]

Would you mind telling me what growth inhibition by drug alone value was observed for O=C(O)C1(C(=O)O)CCC1.[NH2-].[NH2-].[Pt+2] ?
-0.0103

Cool, now N#CC1(c2ccc(NC(=O)c3cccnc3NCc3ccncc3)cc2)CCCC1
0.0775

Cool, now OCCn1cc(-c2ccc3c(c2)CC/C3=N\O)c(-c2ccncc2)n1
-0.0312

====

- System: U-2932
- test_details: growth inhibition by drug alone (1 - RLU/untreated control) (fraction); higher = stronger inhibition
- measurement_conditions: 1000 nM; time (day): 3; 177Lu-lilotomab satetraxetan 0 ug/ml
Threshold check on growth inhibition by drug alone: at or above -0.01 gives Fulfilled, strictly below gives Not fulfilled.

Below are worked cases with known answers.
# compound, label
measured = [
    ("OCCn1cc(-c2cnc3nnn(Cc4ccc5ncccc5c4)c3n2)cn1", "Not fulfilled"),
    ("Nc1ccccc1NC(=O)c1ccc(CNC(=O)OCc2cccnc2)cc1", "Fulfilled"),
    ("CCCS(=O)(=O)Nc1ccc(F)c(C(=O)c2c[nH]c3ncc(-c4ccc(Cl)cc4)cc23)c1F", "Not fulfilled"),
    ("O=c1oc2c(O)c(O)cc3c(=O)oc4c(O)c(O)cc1c4c23", "Not fulfilled"),
    ("O=C(O)CCc1ccc(NCc2cccc(Oc3ccccc3)c2)cc1", "Not fulfilled"),
    ("Cc1nnc(C(C)C)n1C1C[C@H]2CC[C@@H](C1)N2CC[C@H](NC(=O)C1CCC(F)(F)CC1)c1ccccc1 (stereo in doubt)", "Fulfilled"),
    ("C[C@H](NC(=O)Cc1cc(F)cc(F)c1)C(=O)N[C@H](C(=O)OC(C)(C)C)c1ccccc1", "Not fulfilled"),
    ("O=C(O)Cc1cccc(OCCCN(Cc2cccc(C(F)(F)F)c2Cl)CC(c2ccccc2)c2ccccc2)c1", "Fulfilled"),
]

# check: growth inhibition by drug alone of CO[C@H]1C[C@@H]2CC[C@@H](C)[C@@](O)(O2)C(=O)C(=O)N2CCCC[C@H]2C(=O)O[C@H]([C@H](C)C[C@@H]2CC[C@@H](OCCO)[C@H](OC)C2)CC(=O)[C@H](C)/C=C(\C)[C@@H](O)[C@@H](OC)C(=O)[C@H](C)C[C@H](C)/C=C/C=C/C=C/1C [Everolimus (RAD001)] is greater than or equal to -0.01
Fulfilled

Cool, now CCC(=O)N1CCN(c2ccc(-n3c(=O)ccc4cnc5ccc(-c6cnc7ccccc7c6)cc5c43)cc2C(F)(F)F)CC1
Fulfilled

Cool, now CCC1=C[C@@H]2CN(C1)Cc1c([nH]c3ccccc13)[C@@](C(=O)OC)(c1cc3c(cc1OC)N(C)[C@H]1[C@@](O)(C(=O)OC)[C@H](OC(C)=O)[C@]4(CC)C=CCN5CC[C@]31[C@@H]54)C2
Fulfilled

Cool, now COc1cc2c(cc1O)CC[C@@H]1[C@@H]2CC[C@]2(C)[C@@H](O)CC[C@@H]12
Fulfilled

Cool, now NC(=O)Nc1sc(-c2ccc(F)cc2)cc1C(N)=O
Fulfilled

Cool, now CCN(CC)CCCC(C)Nc1nc(C)cc(Nc2ccc3nc(C)cc(N)c3c2)n1 (configuration not stated)
Fulfilled

Cool, now COc1cc(Nc2ncc(F)c(Nc3ccc4c(n3)NC(=O)C(C)(C)O4)n2)cc(OC)c1OC [R406(free base)]
Fulfilled

Cool, now Cc1c(C(=O)Nc2ccc(N3C[C@@H](C)O[C@@H](C)C3)nc2)cccc1-c1ccc(OC(F)(F)F)cc1
Not fulfilled

Cool, now N#CC[C@H](C1CCCC1)n1cc(-c2ncnc3[nH]ccc23)cn1
Not fulfilled

Cool, now Nc1ccc(-c2ccc3ncc4ccc(=O)n(-c5cccc(C(F)(F)F)c5)c4c3c2)cn1
Fulfilled
